Source of measurements: patent US20060110451A1

- assay procedure: Ascending multiple dose pharmacokinetics of enteric coated capsules in healthy subjects
- Type: in vivo, human
- cond: human, plasma, po, 250 mg, healthy subjects, single oral dose 250 mg, day 1; read-out: AUC0-∞ (Mean)

| molecule | AUC(0-inf) |
| --- | --- |
| Cl.c1cc2c3c(c1)[C@H]1CCC[C@H]1CN3CCNC2 [Compound A.HCl] | 95.5 ng·h/mL |

* * *

- assay procedure: Ascending multiple dose pharmacokinetics of enteric coated capsules in healthy subjects
- Type: in vivo, human
- cond: human, plasma, po, 50 mg, healthy subjects, multiple oral doses (q12 h) 50 mg, day 14; read-out: t1/2 (Geom. Mean) (converted)

| molecule | half-life (h) |
| --- | --- |
| Cl.c1cc2c3c(c1)[C@H]1CCC[C@H]1CN3CCNC2 [Compound A.HCl] | 7.58 |

* * *

- assay procedure: Ascending multiple dose pharmacokinetics of enteric coated capsules in schizophrenic patients
- Format: in vivo, human
- cond: human, plasma, po, 150 mg, Schizophrenia patients, multiple oral doses (q12 h) 150 mg, day 10; read-out: AUCss (AUC0-12) (Geom. Mean)

| molecule | AUC(0-t) |
| --- | --- |
| Cl.c1cc2c3c(c1)[C@H]1CCC[C@H]1CN3CCNC2 [Compound A.HCl] | 51.3 ng·h/mL |

* * *

- assay procedure: Ascending multiple dose pharmacokinetics of enteric coated capsules in healthy subjects
- Type: in vivo, human
- cond: human, plasma, po, 150 mg, healthy subjects, multiple oral doses (q12 h) 150 mg, day 14; read-out: AUCss (AUC0-12) (Geom. Mean)

| molecule | AUC(0-t) [ng·h/mL] |
| --- | --- |
| Cl.c1cc2c3c(c1)[C@H]1CCC[C@H]1CN3CCNC2 [Compound A.HCl] | 90.7 |

* * *

- assay procedure: Ascending multiple dose pharmacokinetics of enteric coated capsules in schizophrenic patients
- Format: in vivo, human
- cond: human, plasma, po, 150 mg, Schizophrenia patients, single oral dose 150 mg, day 1; read-out: Cmax (Geom. Mean)
property name: Cmax (ng/mL)

| molecule | property name | unit abbrev | measurement |
| --- | --- | --- | --- |
| Cl.c1cc2c3c(c1)[C@H]1CCC[C@H]1CN3CCNC2 [Compound A.HCl] | Cmax | ng/mL | 3.09 |

* * *

- assay procedure: Ascending multiple dose pharmacokinetics of enteric coated capsules in healthy subjects
- Assay type: in vivo, human
- cond: human, plasma, po, 150 mg, healthy subjects, multiple oral doses (q12 h) 150 mg, day 14; read-out: t1/2 (Mean) (converted)
property name: half-life (h)

| compound | measurement |
| --- | --- |
| Cl.c1cc2c3c(c1)[C@H]1CCC[C@H]1CN3CCNC2 [Compound A.HCl] | 7.04 |

* * *

- assay procedure: Ascending multiple dose pharmacokinetics of enteric coated capsules in schizophrenic patients
- Format: in vivo, human
- cond: human, plasma, po, 100 mg, Schizophrenia patients, single oral dose 100 mg, day 1; read-out: t1/2 (Mean) (converted)
- Protocol: Ascending multiple doses of 100, 150, and 250 mg Compound A.HCl were administered as twice-daily regimen (q12h) for 10 days in cohorts of 8 schizophrenic patients (6 active and 2 placebo). Blood samples for Compound A.HCl analysis were obtained on day 1 within 2 hours of test article administration and at various time points from 0.5 to 24 hours after test article administration. On day 10, blood samples were collected up to 12 hours after dose administration. […]
property name: half-life (min)

| compound | property name | unit abbrev | measurement |
| --- | --- | --- | --- |
| Cl.c1cc2c3c(c1)[C@H]1CCC[C@H]1CN3CCNC2 [Compound A.HCl] | half-life | min | 536 |

* * *

- assay procedure: Ascending multiple dose pharmacokinetics of enteric coated capsules in schizophrenic patients
- Assay type: in vivo, human
- cond: human, plasma, po, 150 mg, Schizophrenia patients, single oral dose 150 mg, day 1; read-out: Cmax (Mean)
property name: Cmax (ng/mL)

| molecule | unit abbrev | measurement |
| --- | --- | --- |
| Cl.c1cc2c3c(c1)[C@H]1CCC[C@H]1CN3CCNC2 [Compound A.HCl] | ng/mL | 3.37 |

* * *

- assay procedure: Ascending multiple dose pharmacokinetics of enteric coated capsules in healthy subjects
- Type: in vivo, human
- cond: human, plasma, po, 25 mg, healthy subjects, multiple oral doses (q12 h) 25 mg, day 14; read-out: Cmax (Mean)
property name: Cmax (ng/mL)

| compound | measurement |
| --- | --- |
| Cl.c1cc2c3c(c1)[C@H]1CCC[C@H]1CN3CCNC2 [Compound A.HCl] | 1.22 |

* * *

- assay procedure: Ascending multiple dose pharmacokinetics of enteric coated capsules in healthy subjects
- Format: in vivo, human
- cond: human, plasma, po, 250 mg, healthy subjects, single oral dose 250 mg, day 1; read-out: AUC0-∞ (Geom. Mean)

| compound | AUC(0-inf), ng·h/mL |
| --- | --- |
| Cl.c1cc2c3c(c1)[C@H]1CCC[C@H]1CN3CCNC2 [Compound A.HCl] | 84.7 |

* * *

- assay procedure: Ascending multiple dose pharmacokinetics of enteric coated capsules in healthy subjects
- Type: in vivo, human
- cond: human, plasma, po, 50 mg, healthy subjects, multiple oral doses (q12 h) 50 mg, day 14; read-out: AUCss (AUC0-12) (Geom. Mean)

| molecule | AUC(0-t) [ng·h/mL] |
| --- | --- |
| Cl.c1cc2c3c(c1)[C@H]1CCC[C@H]1CN3CCNC2 [Compound A.HCl] | 25.3 |

* * *

- assay procedure: Ascending multiple dose pharmacokinetics of enteric coated capsules in schizophrenic patients
- Type: in vivo, human
- cond: human, plasma, po, 150 mg, Schizophrenia patients, single oral dose 150 mg, day 1; read-out: Tmax (Mean)
- Protocol: Ascending multiple doses of 100, 150, and 250 mg Compound A.HCl were administered as twice-daily regimen (q12h) for 10 days in cohorts of 8 schizophrenic patients (6 active and 2 placebo). Blood samples for Compound A.HCl analysis were obtained on day 1 within 2 hours of test article administration and at various time points from 0.5 to 24 hours after test article administration. On day 10, blood samples were collected up to 12 hours after dose administration. […]

| compound | Tmax |
| --- | --- |
| Cl.c1cc2c3c(c1)[C@H]1CCC[C@H]1CN3CCNC2 [Compound A.HCl] | 4.6 h |

* * *

- assay procedure: Ascending multiple dose pharmacokinetics of enteric coated capsules in healthy subjects
- Assay type: in vivo, human
- cond: human, plasma, po, 25 mg, healthy subjects, multiple oral doses (q12 h) 25 mg, day 14; read-out: t1/2 (Geom. Mean) (converted)

| molecule | half-life [h] |
| --- | --- |
| Cl.c1cc2c3c(c1)[C@H]1CCC[C@H]1CN3CCNC2 [Compound A.HCl] | 6.25 |

* * *

- assay procedure: Ascending multiple dose pharmacokinetics of enteric coated capsules in healthy subjects
- Type: in vivo, human
- cond: human, plasma, po, 100 mg, healthy subjects, multiple oral doses (q12 h) 100 mg, day 14; read-out: AUCss (AUC0-12) (Geom. Mean)
property name: AUC(0-t) (ng·h/mL)

| compound | measurement |
| --- | --- |
| Cl.c1cc2c3c(c1)[C@H]1CCC[C@H]1CN3CCNC2 [Compound A.HCl] | 49.2 |

* * *

- assay procedure: Ascending multiple dose pharmacokinetics of enteric coated capsules in healthy subjects
- Assay type: in vivo, human
- cond: human, plasma, po, 100 mg, healthy subjects, multiple oral doses (q12 h) 100 mg, day 14; read-out: t1/2 (Geom. Mean) (converted)

| molecule | unit abbrev | half-life |
| --- | --- | --- |
| Cl.c1cc2c3c(c1)[C@H]1CCC[C@H]1CN3CCNC2 [Compound A.HCl] | h | 7.72 |

* * *

- assay procedure: Ascending multiple dose pharmacokinetics of enteric coated capsules in schizophrenic patients
- Assay type: in vivo, human
- cond: human, plasma, po, 250 mg, Schizophrenia patients, single oral dose 250 mg, day 1; read-out: AUC0-∞ (Mean)
property name: AUC(0-inf) (ng·h/mL)

| compound | measurement |
| --- | --- |
| Cl.c1cc2c3c(c1)[C@H]1CCC[C@H]1CN3CCNC2 [Compound A.HCl] | 109 |

* * *

- assay procedure: Ascending multiple dose pharmacokinetics of enteric coated capsules in healthy subjects
- Type: in vivo, human
- cond: human, plasma, po, 75 mg, healthy subjects, multiple oral doses (q12 h) 75 mg, day 14; read-out: Tmax (Geom. Mean)

| compound | Tmax [h] |
| --- | --- |
| Cl.c1cc2c3c(c1)[C@H]1CCC[C@H]1CN3CCNC2 [Compound A.HCl] | 6.3 |

* * *

- assay procedure: Ascending multiple dose pharmacokinetics of enteric coated capsules in healthy subjects
- Type: in vivo, human
- cond: human, plasma, po, 100 mg, healthy subjects, multiple oral doses (q12 h) 100 mg, day 14; read-out: Cmax (Geom. Mean)

| molecule | Cmax (ng/mL) |
| --- | --- |
| Cl.c1cc2c3c(c1)[C@H]1CCC[C@H]1CN3CCNC2 [Compound A.HCl] | 6.45 |
